B1: library; a variant is named by its letters at N, in order (parent)
chain: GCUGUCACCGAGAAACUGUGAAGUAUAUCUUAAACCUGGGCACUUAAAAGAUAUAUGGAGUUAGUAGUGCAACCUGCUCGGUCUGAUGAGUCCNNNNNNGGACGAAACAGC

Variants of: B1
assay: normalized RNA/DNA level without ligand (relative to sTRSVctl = 100) (log10 (% of sTRSVctl)); HEK293T; ligand: cyclic di-GMP (c-di-GMP-II aptamer); higher = less ribozyme self-cleavage, higher mRNA level
details: reporter: mCherry (pCS4076), ligand present: no
Assign normalized RNA/DNA level without ligand (log10) to each entry below.
Answers are plain numbers.

Sample records with normalized RNA/DNA level without ligand (log10):
* GCUGUCACCGAGAAACUGUGAAGUAUAUCUUAAACCUGGGCACUUAAAAGAUAUAUGGAGUUAGUAGUGCAACCUGCUCGGUCUGAUGAGUCCCGGGUGGGACGAAACAGC [CGGGUG] | 1.62
* GCUGUCACCGAGAAACUGUGAAGUAUAUCUUAAACCUGGGCACUUAAAAGAUAUAUGGAGUUAGUAGUGCAACCUGCUCGGUCUGAUGAGUCCACAAGCGGACGAAACAGC [ACAAGC] | 1.44
* GCUGUCACCGAGAAACUGUGAAGUAUAUCUUAAACCUGGGCACUUAAAAGAUAUAUGGAGUUAGUAGUGCAACCUGCUCGGUCUGAUGAGUCCGAGAAUGGACGAAACAGC [GAGAAU] | 1.66

For every item below, please supply its normalized RNA/DNA level without ligand (log10).
1. GCUGUCACCGAGAAACUGUGAAGUAUAUCUUAAACCUGGGCACUUAAAAGAUAUAUGGAGUUAGUAGUGCAACCUGCUCGGUCUGAUGAGUCCAUCUGAGGACGAAACAGC [AUCUGA]
2. GCUGUCACCGAGAAACUGUGAAGUAUAUCUUAAACCUGGGCACUUAAAAGAUAUAUGGAGUUAGUAGUGCAACCUGCUCGGUCUGAUGAGUCCGACUUGGGACGAAACAGC [GACUUG]
3. GCUGUCACCGAGAAACUGUGAAGUAUAUCUUAAACCUGGGCACUUAAAAGAUAUAUGGAGUUAGUAGUGCAACCUGCUCGGUCUGAUGAGUCCUCGGCGGGACGAAACAGC [UCGGCG]
4. GCUGUCACCGAGAAACUGUGAAGUAUAUCUUAAACCUGGGCACUUAAAAGAUAUAUGGAGUUAGUAGUGCAACCUGCUCGGUCUGAUGAGUCCAUCCGAGGACGAAACAGC [AUCCGA]
5. GCUGUCACCGAGAAACUGUGAAGUAUAUCUUAAACCUGGGCACUUAAAAGAUAUAUGGAGUUAGUAGUGCAACCUGCUCGGUCUGAUGAGUCCUUGCCGGGACGAAACAGC [UUGCCG]
6. GCUGUCACCGAGAAACUGUGAAGUAUAUCUUAAACCUGGGCACUUAAAAGAUAUAUGGAGUUAGUAGUGCAACCUGCUCGGUCUGAUGAGUCCCCUUGGGGACGAAACAGC [CCUUGG]
7. GCUGUCACCGAGAAACUGUGAAGUAUAUCUUAAACCUGGGCACUUAAAAGAUAUAUGGAGUUAGUAGUGCAACCUGCUCGGUCUGAUGAGUCCCGCGGUGGACGAAACAGC [CGCGGU]
8. GCUGUCACCGAGAAACUGUGAAGUAUAUCUUAAACCUGGGCACUUAAAAGAUAUAUGGAGUUAGUAGUGCAACCUGCUCGGUCUGAUGAGUCCUAUCGCGGACGAAACAGC [UAUCGC]

1. 1.56
2. 1.63
3. 1.87
4. 1.56
5. 1.83
6. 1.76
7. 1.67
8. 1.76
